Reported IC50 values for a set of compounds
- target: ATP-binding cassette sub-family C member 4 (Homo sapiens, UniProt O15439)
- Sequence (O15439 whole entry): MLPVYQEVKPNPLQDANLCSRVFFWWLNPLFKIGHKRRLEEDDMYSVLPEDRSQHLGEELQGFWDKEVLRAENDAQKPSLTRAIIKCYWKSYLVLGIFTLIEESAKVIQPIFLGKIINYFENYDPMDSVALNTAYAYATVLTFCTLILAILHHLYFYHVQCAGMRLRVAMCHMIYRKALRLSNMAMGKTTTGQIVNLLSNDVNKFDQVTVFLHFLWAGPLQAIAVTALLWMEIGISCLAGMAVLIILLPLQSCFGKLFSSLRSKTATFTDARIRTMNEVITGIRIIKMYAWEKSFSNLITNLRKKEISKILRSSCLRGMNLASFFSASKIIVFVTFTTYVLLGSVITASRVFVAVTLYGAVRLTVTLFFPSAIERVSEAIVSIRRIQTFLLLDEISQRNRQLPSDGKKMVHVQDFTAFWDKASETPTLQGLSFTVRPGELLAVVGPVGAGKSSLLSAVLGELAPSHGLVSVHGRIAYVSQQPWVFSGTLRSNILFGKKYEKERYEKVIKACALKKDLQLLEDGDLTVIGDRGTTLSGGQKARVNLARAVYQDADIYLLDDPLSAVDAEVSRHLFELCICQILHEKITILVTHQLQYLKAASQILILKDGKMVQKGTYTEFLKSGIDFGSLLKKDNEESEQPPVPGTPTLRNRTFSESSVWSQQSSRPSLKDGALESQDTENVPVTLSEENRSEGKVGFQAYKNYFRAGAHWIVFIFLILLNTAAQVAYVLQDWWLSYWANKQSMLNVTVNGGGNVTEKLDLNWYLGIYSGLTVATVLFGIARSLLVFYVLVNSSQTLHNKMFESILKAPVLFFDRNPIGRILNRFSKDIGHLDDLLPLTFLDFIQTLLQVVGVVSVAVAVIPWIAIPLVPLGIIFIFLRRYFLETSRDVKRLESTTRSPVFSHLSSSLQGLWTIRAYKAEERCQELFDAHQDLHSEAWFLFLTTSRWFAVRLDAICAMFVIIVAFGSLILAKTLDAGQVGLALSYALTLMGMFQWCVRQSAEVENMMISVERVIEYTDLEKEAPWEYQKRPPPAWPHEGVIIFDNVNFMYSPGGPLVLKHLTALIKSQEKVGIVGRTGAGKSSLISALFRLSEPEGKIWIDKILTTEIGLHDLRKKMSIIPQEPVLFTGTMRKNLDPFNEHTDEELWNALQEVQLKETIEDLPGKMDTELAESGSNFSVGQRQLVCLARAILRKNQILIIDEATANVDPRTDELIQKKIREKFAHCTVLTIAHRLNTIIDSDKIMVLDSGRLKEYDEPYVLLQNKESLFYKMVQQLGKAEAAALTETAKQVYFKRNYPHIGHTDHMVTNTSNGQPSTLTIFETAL
- assay: Inhibition of human MRP4 overexpressed in Sf9 cell membrane vesicles assessed as uptake of [3H]-estradiol-17beta-D-glucuronide in presence of ATP and GSH measured after 20 mins by membrane vesicle transport assay
Counter-ions that a name gives are not always drawn.

# compound, IC50
data = [
    ("Cn1c(=O)c2[nH]cnc2n(C)c1=O [THEOPHYLLINE]", "> 133 µM"),
    ("C[C@H]1O[C@@H](O[C@H]2[C@@H](O)C[C@H](O[C@H]3[C@@H](O)C[C@H](O[C@H]4CC[C@@]5(C)[C@H](CC[C@@H]6[C@@H]5CC[C@]5(C)[C@@H](C7=CC(=O)OC7)CC[C@]65O)C4)O[C@@H]3C)O[C@@H]2C)C[C@H](O)[C@@H]1O [DIGITOXIN]", "> 133 µM"),
    ("CN(C)CCC(c1ccc(Cl)cc1)c1ccccn1 (stereo not drawn) [CHLORPHENIRAMINE]", "> 133 µM"),
    ("CC1(COc2ccc(CC3SC(=O)NC3=O)cc2)CCCCC1 (stereo not drawn) [CIGLITAZONE]", "> 133 µM"),
    ("CC(=O)NS(=O)(=O)c1ccc(N)cc1", "> 133 µM"),
    ("O=C(O)P(=O)(O)O [FOSCARNET SODIUM]", "> 133 µM"),
    ("C[C@@H]1CCC[C@H](C)N1NC(=O)c1ccc(Cl)c(S(N)(=O)=O)c1 [CLOPAMIDE]", "> 133 µM"),
    ("Cc1nc(Nc2ncc(C(=O)Nc3c(C)cccc3Cl)s2)cc(N2CCN(CCO)CC2)n1.O [DASATINIB]", "27.3 µM"),
    ("CO/N=C(\\C(=O)N[C@@H]1C(=O)N2C(C(=O)O)=C(COC(C)=O)CS[C@H]12)c1csc(N)n1 [CEFOTAXIME SODIUM]", "24 µM"),
    ("C[C@H]1CN(C[C@H](Cc2ccccc2)C(=O)NCC(=O)O)CC[C@@]1(C)c1cccc(O)c1 [ALVIMOPAN]", "> 133 µM"),
    ("Cc1cnc(NC(=O)C2=C(O)c3ccccc3S(=O)(=O)N2C)s1 [MELOXICAM]", "> 133 µM"),
    ("Cc1ccc(-c2cc(C(F)(F)F)nn2-c2ccc(S(N)(=O)=O)cc2)cc1 [CELECOXIB]", "> 133 µM"),
    ("O=NN(CCCl)C(=O)NC1CCCCC1 [LOMUSTINE]", "> 133 µM"),
    ("COc1ccc2c3c1O[C@H]1C[C@@H](O)C=C[C@@]31CCN(C)C2 [GALANTAMINE]", "> 133 µM"),
    ("CCOc1ccc(NC(C)=O)cc1 [PHENACETIN]", "> 133 µM"),
    ("CCOC(=O)[C@H](CCc1ccccc1)N[C@@H](C)C(=O)N1Cc2ccccc2C[C@H]1C(=O)O", "> 133 µM"),
    ("COCCCC/C(=N\\OCCN)c1ccc(C(F)(F)F)cc1 [FLUVOXAMINE MALEATE]", "> 133 µM"),
    ("C=CCCCCCCCCC(=O)O [UNDECYLENIC ACID]", "63.9 µM"),
    ("C[C@]12CC[C@@H]3c4ccc(O)cc4CC[C@H]3[C@@H]1CC[C@@H]2O [ESTRADIOL]", "> 133 µM"),
    ("CCCCC(=O)OCC(=O)[C@]1(O)Cc2c(O)c3c(c(O)c2[C@@H](O[C@H]2C[C@H](NC(=O)C(F)(F)F)[C@H](O)[C@H](C)O2)C1)C(=O)c1c(OC)cccc1C3=O [VALRUBICIN]", "36.8 µM"),
    ("O=c1[nH]cnc2c1ncn2[C@H]1CC[C@@H](CO)O1 [DIDANOSINE]", "> 133 µM"),
    ("CC(C)NNC(=O)c1ccncc1 [IPRONIAZID]", "> 133 µM"),
    ("CCCCCCCCCCC[C@@H](C[C@@H]1OC(=O)[C@H]1CCCCCC)OC(=O)[C@H](CC(C)C)NC=O [ORLISTAT]", "> 133 µM"),
    ("NC[C@H]1O[C@H](O[C@H]2[C@H](O)[C@@H](O[C@H]3O[C@H](CO)[C@@H](O)[C@H](N)[C@H]3O)[C@H](N)C[C@@H]2N)[C@H](N)C[C@@H]1O [TOBRAMYCIN]", "> 133 µM"),
    ("CNNCc1ccc(C(=O)NC(C)C)cc1 [PROCARBAZINE HYDROCHLORIDE]", "> 133 µM"),
    ("O=C(NC[C@H]1CN(c2ccc(N3CCOCC3=O)cc2)C(=O)O1)c1ccc(Cl)s1 [RIVAROXABAN]", "> 133 µM"),
    ("CC(=O)Nc1ccc(/C=N/NC(N)=S)cc1 [AMITHIOZONE]", "> 133 µM"),
    ("CN1[C@@H]2CC[C@H]1C[C@@H](OC(=O)C(CO)c1ccccc1)C2 (mixture of isomers) [ATROPINE]", "> 133 µM"),
    ("CCOC(=O)C1=C(COCCN)NC(C)=C(C(=O)OC)C1c1ccccc1Cl (stereo not drawn) [AMLODIPINE]", "> 133 µM"),
    ("CN/C(=N/CCSCc1nc[nH]c1C)NC#N [CIMETIDINE]", "> 133 µM"),
    ("Nc1ccn([C@@H]2O[C@H](CO)[C@@H](O)C2(F)F)c(=O)n1 [GEMCITABINE HYDROCHLORIDE]", "> 133 µM"),
    ("CC[C@@H]([C@H](C)O)n1ncn(-c2ccc(N3CCN(c4ccc(OC[C@@H]5CO[C@@](Cn6cncn6)(c6ccc(F)cc6F)C5)cc4)CC3)cc2)c1=O [POSACONAZOLE]", "> 133 µM"),
    ("COc1c(N2C[C@@H]3CCCN[C@@H]3C2)c(F)cc2c(=O)c(C(=O)O)cn(C3CC3)c12 [MOXIFLOXACIN HYDROCHLORIDE]", "> 133 µM"),
]

* * *

- assay: AUC in human at 3 mg, sc administered as single dose during early to mild follicular phase after 24 hrs
- Assay type: ADME, organism-based
- Design: dose 3 mg, time < 24 hr, route subcutaneous
- reported conditions: female, in vivo
Non-standard residues stand in square brackets, D forms with d. Residues, ends and D or L forms follow the SMILES beside them. dPhe(4-Cl) = N[C@H](Cc1ccc(Cl)cc1)C(=O)O; d2Nal = N[C@H](Cc1ccc2ccccc2c1)C(=O)O; dCit = NC(=O)NCCC[C@@H](N)C(=O)O; d3Pal = N[C@H](Cc1cccnc1)C(=O)O
endpoint name: AUC at 24 h

# compound, endpoint name, result
rows = [
    ("CC(=O)N[C@H](Cc1ccc2ccccc2c1)C(=O)N[C@H](Cc1ccc(Cl)cc1)C(=O)N[C@H](Cc1cccnc1)C(=O)N[C@@H](CO)C(=O)N[C@@H](Cc1ccc(O)cc1)C(=O)N[C@H](CCCNC(N)=O)C(=O)N[C@@H](CC(C)C)C(=O)N[C@@H](CCCNC(=N)N)C(=O)N1CCC[C@H]1C(=O)N[C@H](C)C(N)=O.CC(=O)O [CETRORELIX ACETATE] (Ac-[d2Nal][dPhe(4-Cl)][d3Pal]SY[dCit]LRP[dA]-NH2)", "AUC at 24 h", "0.375 µM·h"),
]

* * *

- target: ATP-binding cassette sub-family C member 4 (Homo sapiens)
- assay: Inhibition of human MRP4 overexpressed in Sf9 cell membrane vesicles assessed as uptake of [3H]-estradiol-17beta-D-glucuronide in presence of ATP and GSH measured after 20 mins by membrane vesicle transport assay
- Type: ADME, cell-based
pIC50: −log10 of the molar value.

# compound, censoring operator, pIC50
rows = [
    ("CCCCC[C@H](O)/C=C/[C@H]1[C@H](O)CC(=O)[C@@H]1CCCCCCC(=O)O", "=", 5.64),
    ("COc1ccccc1Oc1c(NS(=O)(=O)c2ccc(C(C)(C)C)cc2)nc(-c2ncccn2)nc1OCCO", "=", 4.66),
    ("CC1(C)S[C@@H]2[C@H](NC(=O)[C@H](NC(=O)N3CCNC3=O)c3ccccc3)C(=O)N2[C@H]1C(=O)O [AZLOCILLIN SODIUM]", "<", 3.88),
    ("CN(C)CCCN1c2ccccc2CCc2ccccc21", "<", 3.88),
]

* * *

- assay: Drug concentration at steady state in human at 60 to 120 mg, po QD after 24 hrs
- Type: ADME, organism-based
- reported conditions: in vivo, read-out: Css

# compound, concentration at 24 h (nM)
rows = [
    ("COC(=O)C1=C(C)NC(C)=C(C(=O)OCCN(C)Cc2ccccc2)C1c1cccc([N+](=O)[O-])c1 (stereo unspecified)", 30),
]
